Data provenance: ChEMBL document CHEMBL1255557

# target-entity: Muscarinic acetylcholine receptor M5 (Homo sapiens, UniProt P08912)
# Sequence (P08912 whole entry): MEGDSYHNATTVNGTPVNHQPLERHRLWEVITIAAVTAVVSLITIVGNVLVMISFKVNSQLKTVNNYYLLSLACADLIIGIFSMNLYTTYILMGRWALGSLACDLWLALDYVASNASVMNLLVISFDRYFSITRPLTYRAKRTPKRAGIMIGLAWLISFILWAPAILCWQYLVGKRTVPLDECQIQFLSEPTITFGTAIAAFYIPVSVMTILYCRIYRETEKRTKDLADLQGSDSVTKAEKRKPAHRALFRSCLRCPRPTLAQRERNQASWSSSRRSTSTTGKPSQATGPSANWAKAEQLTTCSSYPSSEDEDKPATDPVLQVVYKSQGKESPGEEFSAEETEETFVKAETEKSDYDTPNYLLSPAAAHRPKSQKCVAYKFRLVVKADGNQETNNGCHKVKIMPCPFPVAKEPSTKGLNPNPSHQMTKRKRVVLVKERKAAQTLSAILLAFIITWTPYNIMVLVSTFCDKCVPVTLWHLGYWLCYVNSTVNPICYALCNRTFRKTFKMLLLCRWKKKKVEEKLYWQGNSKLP
# experimental-protocol: Positive allosteric modulation of muscarinic M5 receptor expressed in CHO cells assessed as effect on acetylcholine-induced intracellular calcium mobilization after 1 hr by FLIPR assay
pEC50: −log10 of the molar value.
endpoint-label: pEC50

[
  {
    "smiles-code": "O=C1C(=O)N(Cc2ccc(-c3ccncc3)nc2)c2ccc(OC(F)(F)F)cc21",
    "measurement-qualifier": "=",
    "recorded-measurement": 5.36
  },
  {
    "smiles-code": "O=C1C(=O)N(Cc2cccc(-c3ccccc3)c2)c2ccc(OC(F)(F)F)cc21",
    "measurement-qualifier": "<",
    "recorded-measurement": 4.52
  },
  {
    "smiles-code": "O=C1C(=O)N(Cc2ccc(-c3cccnc3)cn2)c2ccc(OC(F)(F)F)cc21",
    "measurement-qualifier": "<",
    "recorded-measurement": 4.52
  },
  {
    "smiles-code": "O=C1C(=O)N(Cc2ccc(-c3ccccc3)cn2)c2ccc(OC(F)(F)F)cc21",
    "measurement-qualifier": "=",
    "recorded-measurement": 5.51
  },
  {
    "smiles-code": "O=C1C(=O)N(Cc2ccc(Oc3cccc(F)n3)cc2)c2ccc(OC(F)(F)F)cc21",
    "measurement-qualifier": "=",
    "recorded-measurement": 5.82
  }
]
